biological target: human CD3 (human, UniProt P07766 23-207; P09693 23-182; P04234 22-171); test: cell-based or functional assay
property name: % max ref. OKT3 (dTomato activation) (%)
Use % as the unit, but write only the number.

Consider the reported % max ref. OKT3 (dTomato activation) for these binders:
- F332-10B6 (antibody, mouse IgG2a, V domains shown, also called F332-10B6-2; F332-12B5-1) VH: QVQLQQPGAELGKPGTSVNLSCKASGYTFTDYWIHWVKQRPGQGLEWIGNINPNSGDTNYNENFKTKATLTVDRSSSTAYMQLSSLTSEDSAVYYCTRDISGQYYFDFWGQGTTLTVSS VL: DIVMSQSPSSLAVSAGEKVTMSCKSSQSLLNSRTRKNYLAWYQQKPGQSPKLLIYWASTRESGVPDRFTGSGSGTDFTLTISSVQAEDLAVYYCIQSYNLRTFGGGTKLEIK: 60
- F332-1E2 (antibody, mouse IgG2a, V domains shown, Sister clone 8C5 shares the same entries; also called F332-1E2-2; F332-1E2 (8C5)) VH: QVQLQQPGAELGKPGTSVKLSCKASGYTFTSYWIHWVKQRPGQGLEWVGNINPNSGSINYNEKFKNKATLTVDKSSSTAYMQLSTLTSEDFAVYYCTRDTSGQYYFDYWGQGTTLTVSS VL: DIVMSQSPSSLAVSAGERVTMSCKSSQSLLNSRTRKNYLAWYQQKPGQSPKLLIYWASTRESGVPDRFTGSGSGTDFTLTISSVQAEDLAVYYCIQSYHLRTFGGGTKLEIK: 104

May I ask what % max ref. OKT3 (dTomato activation) has been recorded for F332-1C9 (antibody, mouse IgG2a, V domains shown, Sister clones 1A10, 5H8, 8B11 share the same entries; also called F332-1C9-2; F332-1C9 (1A10, 5H8, 8B11)) VH: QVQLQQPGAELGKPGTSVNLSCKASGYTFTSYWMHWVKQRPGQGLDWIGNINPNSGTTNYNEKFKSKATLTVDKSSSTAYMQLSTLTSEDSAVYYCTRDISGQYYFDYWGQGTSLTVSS VL: DIVMSQSPSSLAVSAGEKVTMSCKSSQSLLNSRTRKNYLAWYQQKPGQSPKLLIYWASTRESGVPDRFTGSGSGTDFTLIISSVQAEDLAVYYCKQSYSLRTFGGGTKLEIK ?
94
